system_tested: mouse TMEM16A mutant I512A (Mus musculus, UniProt Q8BHY3, I512A)
Construct: expressed in transfected cells; host or cells: HEK293T
Sequence (Q8BHY3 1-960 I512A): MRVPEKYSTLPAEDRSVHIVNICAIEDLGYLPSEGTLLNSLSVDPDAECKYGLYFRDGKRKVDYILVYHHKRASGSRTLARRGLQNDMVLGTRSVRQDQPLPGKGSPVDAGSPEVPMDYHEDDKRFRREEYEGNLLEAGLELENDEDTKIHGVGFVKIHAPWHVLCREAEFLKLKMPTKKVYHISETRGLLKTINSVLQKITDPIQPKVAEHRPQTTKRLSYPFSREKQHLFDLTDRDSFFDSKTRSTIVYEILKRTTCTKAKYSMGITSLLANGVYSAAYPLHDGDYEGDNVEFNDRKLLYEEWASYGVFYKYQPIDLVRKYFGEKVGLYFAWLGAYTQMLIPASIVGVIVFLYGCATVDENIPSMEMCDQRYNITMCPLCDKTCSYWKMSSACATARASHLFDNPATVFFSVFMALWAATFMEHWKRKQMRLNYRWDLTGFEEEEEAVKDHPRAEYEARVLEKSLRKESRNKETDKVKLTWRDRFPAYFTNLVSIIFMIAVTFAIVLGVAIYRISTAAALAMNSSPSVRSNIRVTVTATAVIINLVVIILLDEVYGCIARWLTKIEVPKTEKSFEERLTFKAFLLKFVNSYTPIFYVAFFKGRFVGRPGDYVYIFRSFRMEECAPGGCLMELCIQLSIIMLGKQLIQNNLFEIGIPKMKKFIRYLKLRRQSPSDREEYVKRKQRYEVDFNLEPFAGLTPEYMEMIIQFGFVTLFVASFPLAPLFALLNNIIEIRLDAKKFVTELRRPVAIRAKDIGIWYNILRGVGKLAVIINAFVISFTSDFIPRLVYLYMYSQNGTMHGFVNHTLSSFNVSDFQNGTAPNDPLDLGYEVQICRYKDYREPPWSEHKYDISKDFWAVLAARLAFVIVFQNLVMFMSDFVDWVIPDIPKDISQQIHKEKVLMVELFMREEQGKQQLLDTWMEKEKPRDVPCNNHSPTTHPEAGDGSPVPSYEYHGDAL
test_protocol: Inside-out patch recording of 1PBC block, mutant I512A
Format: cell-based
measurement_context: I512A; V 80 mV
property_name: pIC50
Answers are plain numbers, as −log10 of the molar value.

Prompt: Look up and state reported pIC50 for N#Cc1c(C(F)(F)F)cc(O)n2c1nc1ccccc12
Completion: 4.77
